tested on: HS 578T breast; test: NCI tumour cell line growth inhibition, 48 h
Overview of reported TGI across a group of compounds:

Example cases with answers are listed next.
Would you mind telling me what TGI value was observed for Nc1nc(Cl)c(N)c(NCC2(CO)CCC2)n1 ?
> 100 µM

Would you mind telling me what TGI value was observed for O=c1[nH]c(C23CC4CC(CC(C4)C2)C3)cc2c1c(=O)oc1ccccc12 ?
> 20.3 µM

Would you mind telling me what TGI value was observed for C[C@]12C[C@H](c3ccccc3)Nc3ccccc3N1C(c1ccccc1)=NO2 ?
> 100 µM

Would you mind telling me what TGI value was observed for COC(=O)CCc1cc(OC)c2c(c1)C(C(=O)OC)C(c1ccc(OC)c(OC)c1)O2 (stereo not given) ?
> 100 µM

***
Would you mind telling me what TGI value was observed for CN[C@@H](C)C(=O)N[C@H](C(=O)N1CCC[C@H]1C(=O)N[C@H]1c2ccccc2C[C@H]1OCC#CC#CCO[C@@H]1Cc2ccccc2[C@@H]1NC(=O)[C@@H]1CCCN1C(=O)[C@@H](NC(=O)[C@H](C)NC)C1CCCCC1)C1CCCCC1 ?
12.1 µM

Would you mind telling me what TGI value was observed for CN1CCN(CCCN)CC1 ?
> 100 µM

Would you mind telling me what TGI value was observed for O=C1CC(CC(O)[C@@H]2CCCC[C@@H]2O)CC(=O)N1c1ccccc1 (stereo not given in full) ?
> 100 µM

Would you mind telling me what TGI value was observed for Nc1nc(N)c2cc(Sc3ccc4nc(N)nc(N)c4c3)ccc2n1 ?
> 100 µM

Would you mind telling me what TGI value was observed for Cc1cc(C)nc(NS(=O)(=O)c2ccc(Nc3c4ccccc4nc4c(C(=O)NNCCO)cccc34)cc2)n1 ?
> 100 µM

Would you mind telling me what TGI value was observed for O=c1c2c(nc3n1CCS3)[nH]c1ccccc12 ?
> 100 µM

Would you mind telling me what TGI value was observed for COc1ccc(/C=C2\CCC(CNc3cc(C)on3)C2=O)cc1 (stereo not given) ?
> 100 µM

Would you mind telling me what TGI value was observed for COc1cc(Nc2nccc(Nc3ccc4c(C)[nH]nc4c3)n2)cc(OC)c1OC ?
5.15 µM

Would you mind telling me what TGI value was observed for CCOC(=O)Nc1nc2ccc(Cn3cccc3)cc2[nH]1 ?
> 100 µM

Would you mind telling me what TGI value was observed for CC(C)(C)[Si](C)(C)O[C@@H](C(=O)OC1C=CCCC1)[C@@H](NC(=O)c1ccccc1)c1ccccc1 (stereo not given in full) ?
> 100 µM

Would you mind telling me what TGI value was observed for COc1ccc(CN(C)c2ccc(CO)c(Cl)c2)cc1 ?
> 100 µM
